Test system: cultured human mast cells (CHMC)
Test: CHMC low cell density IgE activation: tryptase assay
Format: cell-based
Conditions: low cell density; read-out: CHMC anti-IgE Tryptase
I'd appreciate it if you could supply IC50 values for the items below.

IC50 for CC1(C)Oc2ccc(Nc3ncc(F)c(Nc4ccc5c(c4)NC(=O)C(F)(F)O5)n3)cc2NC1=O [Compound R940367] is 117 nM

IC50 for Cc1cccc(C)c1Nc1ncc(F)c(Nc2ccc3cc[nH]c3c2)n1 [Compound R927088] is 117 nM

IC50 for Fc1cnc(NC2CCC2)nc1NC1CCC1 [Compound R945380] is > 10000 nM

IC50 for Cn1ncc2ccc(Nc3ncc(F)c(Nc4ccc5c(c4)OCCO5)n3)cc21 [Compound R935392] is 204 nM

IC50 for CC(=O)N1CCN(c2ccc(Nc3nc(NC4CCC4)ncc3F)cc2)CC1 [Compound R945382] is > 10000 nM

IC50 for C[C@@H]1Oc2ccc(Nc3nc(Nc4ccc(CN)cc4)ncc3F)cc2NC1=O [Compound R950461] is 142 nM

IC50 for CCOC(=O)CCn1cc2cc(Nc3ncc(F)c(Nc4ccc5c(c4)NC(=O)C(C)(C)O5)n3)ccc2n1 [Compound R935448] is 111 nM

IC50 for CNC(=O)C1Cc2cc(Nc3ncc(F)c(Nc4ccc5c(c4)NC(=O)C(F)(F)O5)n3)ccc2O1 (racemic) [Compound R927049] is 110 nM

====

Test system: basophil cells (human peripheral blood)
Experiment: Basophil anti-IgE activation: histamine release assay
Type: cell-based
Details: read-out: Basophils anti-IgE Histamine
readout: IC50 (nM)
Could you give me the number in nM? Just the number is fine.

Fill in: basophil cells (human peripheral blood) IC50 for "Nc1cccc(Nc2ncc(F)c(Nc3cccc(N)c3)n2)c1" = 190

====

I'd appreciate it if you could supply Plasma Concentration ± SEM (ng/ml) Exposure = Pretreatment Time + 4 hours values for the items below.
Assay: Mouse Reverse Passive Arthus reaction (RPA reaction)
Format: in vivo, C57BL/6 mice
Conditions: oral, 100 mg/kg, pretreatment time 1 hrs + 4 hours
Could you give me the number in ng/mL? Just the number is fine.

Plasma Concentration ± SEM (ng/ml) Exposure = Pretreatment Time + 4 hours for "CC1(C)Oc2ccc(Nc3ncc(F)c(Nc4ccc5c(c4)NC(=O)C(C)(C)O5)n3)cc2NC1=O" is 129

Plasma Concentration ± SEM (ng/ml) Exposure = Pretreatment Time + 4 hours for "Fc1cnc(Nc2ccc3cn[nH]c3c2)nc1Nc1ccc(Cl)c(Cl)c1" is 4.2

Plasma Concentration ± SEM (ng/ml) Exposure = Pretreatment Time + 4 hours for "COc1cc(Nc2ncc(F)c(Nc3ccc4c(c3)NC(=O)C(C)(C)O4)n2)cc(OC)c1.Cc1ccc(S(=O)(=O)O)cc1" is 2851

Plasma Concentration ± SEM (ng/ml) Exposure = Pretreatment Time + 4 hours for "CC1(C)Oc2ccc(Nc3nc(Nc4ccc5cn[nH]c5c4)ncc3F)cc2NC1=O.O=S(=O)(O)c1ccccc1" is 401

====

System: cultured human mast cells (CHMC)
Assay: CHMC low cell density IgE activation: tryptase assay
Type: cell-based
Details: low cell density; read-out: CHMC anti-IgE Tryptase
I'd appreciate it if you could supply pIC50 values for the items below.
Units for pIC50: none; it is -log10 of a concentration expressed in mol/L.

Fill in: cultured human mast cells (CHMC) pIC50 for NC(=O)c1ccc(Nc2ncc(F)c(Nc3ccc4c(c3)NC(=O)C(F)(F)O4)n2)cc1 [Compound R950455] = 6.66

Fill in: cultured human mast cells (CHMC) pIC50 for COc1c(Cl)cc(Nc2ncc(F)c(Nc3ccc4c(c3)C(N)CCO4)n2)cc1Cl (racemic) [Compound R950424] = 6.63

Fill in: cultured human mast cells (CHMC) pIC50 for COc1cc(Nc2nc(Nc3ccc(C(N)=O)cc3)ncc2F)cc(OC)c1 [Compound R950450] = 5.96

Source listed as patent US8158621B2.
